Where do the numbers come from? From patent US9170257B2.

test: in vivo; set-up: species or system Beagle dogs; conditions: both sexes, Beagle, dog, in vivo, Tissue analysis, Spleen

>  <compound>
COc1cc(/C=C/C(=O)CC(=O)/C=C/c2ccc(O)c(OC)c2)ccc1O [Curcumin, reference compound]

>  <concentration at 15 min post-infusion>
22.9 ng/g

$$$$

---

Test: Plasma, urine and bile levels of curcumin and THC 15 minutes post-infusion
Assay type: in vivo, Beagle dogs
Settings: both sexes, Beagle, dog, in vivo, 10 mg/kg, 15 min after 2 hour infusion; no H3PO4; mean±SE; read-out: Urine level
Procedure: The results and analysis for the study are presented for intravenous infusion dosing of a total dose of 10 mg/kg infused over a period of either 2 or 8 hours. Plasma levels of curcumin and its metabolite, THC were measured at timed intervals post-dosing. Bioanalysis was performed on two sets of samples, one set that was treated with phosphoric acid and one set that was not treated with phosphoric acid. […] Values that were below the limit of quantification were assigned a value of 0. […]

>  <molecule>
COc1cc(CCC(=O)CC(=O)CCc2ccc(O)c(OC)c2)ccc1O [THC, tetrahydrocurcumin]

>  <unit descriptor>
ng/mL

>  <concentration at 15 min>
6420

$$$$
